# assay.name: soluble fraction after stress (log2 fold change); higher = more stays soluble; pooled small domains, quantitative proteomics
# test.parameters: stress: pH 4
Reported soluble fraction (log2) values for a set of sequences
Just the number, please.

Example results:
{"columns": ["sequence.string", "soluble fraction (log2)"],
 "data": [
  ["HMSTPENLGGRNTAKARISWLENGVKQELESDFPAAEVVKLSSRFGGEVPELTVIRPSLEDIYLKMIG", -0.269],
  ["HMDAINYEDFQLLIKQRGSFKVAFEDIMFSTKVAIEKKEDFYDFVTKLIDNGFNNMAYNYLEGFQD", -2.34],
  ["HMAPPDFTTFMRNYQDMVYSTAVRLIGNETQAEDIAQEVFIKAHAHFENLRTSPSAGGWLKTVATNLSIN", -0.949]
]}

Query: Provide measured soluble fraction (log2) value, entry: HMNAESLIGDRAVVTVAIERNKRGRVDVTGQDWAATTRDGEEIKVGQEVLVVGISGVALIVEER
Reply: 0.164

Query: Give the value of soluble fraction (log2) reported for the following: HMGGTATDYYNQGRTAYDVGDYNGALMNFQEAVRLDPRYGEAYYGLGKAYEALNMQNQALDAYLSAI
Reply: -1.46

Query: Return the recorded soluble fraction (log2) value; entry: HMSVSVEEDADGRVWVYYQDQKMDITDLFDENGVYGFNLEKGDRTVYVEVTKNADGTYSFTQTD
Reply: -1.34

Query: For the sequence HMDNIKRGEMFYISRGGASYSGSEQHSDRPAVVVSNDKNNENSNVVEVVYMTTQPKTDLPTHVTVR , give its measured soluble fraction (log2) value.
Reply: -0.0773

Query: Annotate the sequence HMLFVKLSDAQRSMFGAKLARDARIQSEYAQKLPSENYEVFGKALADMLLDETHFKTFYPLLVEYGYTQPK with its measured soluble fraction (log2).
Reply: -0.649

Query: Respond only with soluble fraction (log2) recorded for HMSFVAYEEEKAIGMVRLIGDGGMSFYIKDFAVLPGHQGKGVGQMLLMELQQYLLEHKPADWAVSLE
Reply: -1.47

Query: Item HMNEMEWVAKLIDQLPERERMILQLREIEQYEFDQIASLMEIPEGTVRVYLSRIRKKIKKQFIEIQSH : provide soluble fraction (log2)
Reply: -0.405

Query: Look up and state reported soluble fraction (log2) for HMGELGPGSRGQAVRALQERLMALGFPLARFGADGIFGRETTGALRAFQHVAGLSPTGLGDHETLKWLGII
Reply: -0.351

Query: Look up and report measured soluble fraction (log2) for this entry: HMVSVLDHIVGIGAKRRQSLWNHFGTIDKIKAASIDELLKAPGMNRPSAEAVYYFFEAQRQLRGK
Reply: 0.0106

Query: Assign soluble fraction (log2) to the following record: HMILQTLSERVTETLRDWILHGHFKPGDKIEEVPIAERMGVSRTPVRAAFATLTNEGLIDHQPNRGYQVRV
Reply: 0.201

Query: Report soluble fraction (log2), nothing else, for this sequence: HMQDSSGENNPQSKLTQQQVDLLMKDLKETNVEFDKLAEKYNVSIKTIRNVNTGIAWRKNDITYPIREP
Reply: -0.255

Query: Output measured soluble fraction (log2) for this item: HMKEETEMVTIPDVTGKPLTEAANLLREAKLDYLAESTGTSVTKQMPLPGAEVMVNTTVLLYTG
Reply: 0.241
